All values here come from paper PMC9072246.

assay: In vivo pharmacokinetic after oral administration; parameters: species or system SD rats; settings: SD, rat, plasma, po, 30 mg/kg
Structures can show the parent of a compound that is named as a salt.
reported endpoint: concentration at 8 h (ng/mL)
Give bare numbers, in ng/mL.

Query: Provide only the value of recorded concentration at 8 h for COc1cccc2c1C(=O)c1c(O)c3c(c(O)c1C2=O)C[C@@](O)(C(=O)CO)C[C@@H]3O[C@H]1C[C@H](N)[C@H](O)[C@H](C)O1 [DOX, doxorubicin hydrochloride]
Result: 130

====

assay: In vivo pharmacokinetic after oral administration; set-up: species or system SD rats; conditions: SD, rat, plasma, po, 30 mg/kg
Where a name gives a salt, the structure may show the parent alone.
reported endpoint: half-life (h)
Answers are plain numbers, in h.

Query: Dear colleague, please send me the reported half-life for COc1cccc2c1C(=O)c1c(O)c3c(c(O)c1C2=O)C[C@@](O)(C(=O)CO)C[C@@H]3O[C@H]1C[C@H](N)[C@H](O)[C@H](C)O1 [DOX, doxorubicin hydrochloride] when you can.
Result: 12.6
